target: G-protein coupled receptor 151 (Homo sapiens); test: activators of human GPR151, primary screen, cell-based, PathHunter beta-arrestin, luminescence (AID 1508602); settings: PathHunter beta-arrestin GPR151 cells, at 11.2 µM
About 6,800 (1%) of roughly 650,000 compounds were called active. Cut-off read from the data, not from the text of the source: active = activation above about 4.9%; inactive = the rest. Only a selection was taken, and actives are over-represented in it overall.
Your reply should match one of these outcome classes. active, inactive

Request: // return assay outcome for COc1ccccc1C(=O)N/C(=C\c1ccc2c(c1)OCO2)C(N)=O
Response: active

Request: Now give it for O=C(N/N=C/c1cccc(Cl)c1Cl)c1cccs1 too.
Response: active

Request: Record: COc1ccc(CCNc2cc(C)nc(NCc3ccc4c(c3)OCO4)n2)cc1
Response: inactive

Request: Next: Cc1cccn2c(=O)c3cc(C(=O)NC4CCCCC4)c(=N)n(C4CCCCC4)c3nc12
Response: active

Request: Can you handle CC(C)n1c(Nc2ccc3ncccc3c2)nc2c(N)ncnc21 next?
Response: inactive

Request: Likewise for Cc1cc2[nH]c(=O)c(=O)[nH]c2cc1S(=O)(=O)Nc1ccc(Br)cc1F ?
Response: inactive

Request: Entry Cc1ccc2c(c1)N(CC(=O)N1CCC(C)CC1)C(=O)c1cccnc1O2 please
Response: active

Request: Another molecule: CCN(CC)C1CCN(C(=O)c2cc(COc3ccc4ncccc4c3)on2)C1 (configuration not stated)
Response: active

Request: Continue with COc1ccc(C(=O)COC(=O)c2ccc3ccccc3n2)c(OC)c1
Response: inactive

Request: Field entry: Cc1ccc2nc3c(cc(C(=O)NC4CCCCC4)c(=N)n3C(C)C)c(=O)n2c1
Response: inactive

Request: Try this molecule next: O=C(CC12CC3CC(CC(C3)C1)C2)Nc1ccc2oc(=O)ccc2c1
Response: active

Request: Entry to check: COc1ccc(CCNc2ncnc3c2nc(Nc2cccc(N(C)C)c2)n3C(C)C)cc1
Response: inactive

Request: Please do the same for CCOC(=O)CNC(=O)/C(=C\c1ccc2c(c1)OCO2)NC(=O)c1ccccc1OC as well.
Response: inactive

Request: Now consider CCCNc1ncnc2c1nc(Nc1cccc(N(C)C)c1)n2C(C)C and answer again.
Response: inactive

Request: Would you kindly repeat that for CN(CC(=O)Nc1cccc(F)c1)C(=O)C1CCCCC1 ?
Response: inactive

Request: What would you report for COCCCNC(=O)c1nnc(-c2ccccc2)o1 ?
Response: inactive

Request: What about this molecule? COc1ccc(C(=O)Cc2cc3ccccc3oc2=O)c(OC)c1
Response: active

Request: Now consider COc1cccc(/C=C/C(=O)c2cc3ccccc3oc2=O)c1 and answer again.
Response: inactive

Request: Queued: O=C(N/N=C/c1cccc(Cl)c1Cl)c1ccc(O)cc1
Response: inactive

Request: Queued: O=C(c1cc(COc2ccc3ncccc3c2)on1)N1C[C@@H]2CCC[C@H]1C2
Response: inactive

Request: Field entry: COc1ccccc1N1CCN(C(=O)c2cc(-c3ccc(Cl)c(Cl)c3)nc3ccccc23)CC1
Response: inactive

Request: Input COC(=O)CN1C(=O)c2cccnc2Oc2ccc(C)cc21
Response: inactive
